Value source: paper PMC5540273

test system: SgK110; conditions: concentration: 1 μM, replicates: in singlicate; n = 1;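 also: KINOMEscan kinase panel screen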
observation.type: %Inh (%)

>>> print(df.to_string())
                                    compound  measurement_target  unit_of_measurement  numeric_readout
 0  COC(=O)c1c(-c2ccccc2)c2cc(Br)ccc2c(=O)n1Cc1ccc(NC(=O)CCC(=O)O)cc1              SgK110                    %                0
 1  CCC(=O)c1c(-c2ccccc2)c2cc(Cl)ccc2c(=O)n1Cc1cc(C(=O)NC2CC2)n(C)n1              SgK110                    %               11
 2             COc1ccc(-n2cnc3c(N)ncnc32)cc1              SgK110                    %                0
 3        CCc1nc(-c2cccc(C)c2)c(-c2ccncc2)s1              SgK110                    %                0
 4           Nc1nc(N)c2nc(-c3ccccc3)[nH]c2n1              SgK110                    %                0
 5  COc1ccc(-c2cc3c(C)nc(N)nc3n([C@H]3CC[C@H](O)CC3)c2=O)cn1              SgK110                    %                0
 6  O=C(NCCNc1ccnc(Nc2ccc(F)cc2)n1)Nc1ccc2c(c1)OCO2              SgK110                    %                0
 7  Cc1ccc(-c2ccc3c(ccc4sc5c(c43)NC[C@@H](C)N=C5N(C)C)n2)cn1              SgK110                    %               14
 8  COc1cc2ncn(-c3cc(OCc4ccncc4)c(C(N)=O)s3)c2cc1OC              SgK110                    %                0
 9  CCCC(=O)Nc1n[nH]c2ncc(-c3cccc4ccccc34)cc12              SgK110                    %                0
10  O=C(NCc1cccs1)c1cc(C(=O)c2c(Cl)cccc2Cl)c[nH]1              SgK110                    %               14
11                Nc1ncnc2c1ncn2-c1cccc(F)c1              SgK110                    %                5
12  COc1ccc(-c2cc3c(C)nc(N)nc3n([C@H]3CC[C@H](OCCO)CC3)c2=O)cn1              SgK110                    %               25
13    CN(C)c1cc(-c2ccc3c(N)n[nH]c3c2)nc(N)n1              SgK110                    %                0
14  Cl.c1ccc(Cn2cnc3cc(Nc4ncnc5ccccc45)ccc32)cc1              SgK110                    %                0
15             COc1cccc(-n2cnc3c(N)ncnc32)c1              SgK110                    %                0
16  O=C(Nc1ccc2c(c1)OCO2)NC1CCN(c2ccnc(NCc3ccc(F)cc3)n2)CC1              SgK110                    %                0
17  COc1cccc(C2=C(Nc3cccc(C(=O)O)c3)C(=O)NC2=O)c1              SgK110                    %                3
18  Cc1ccccc1COc1cc(-n2cnc3cc(Cl)ccc32)sc1C(N)=O              SgK110                    %                0
19  COC(=O)c1c(-c2ccccc2)c2cc(C)ccc2c(=O)n1Cc1ccccc1              SgK110                    %               12
20  COC(=O)c1c(-c2ccccc2)c2cc(Br)ccc2c(=O)n1Cc1ccc(S(C)(=O)=O)cc1              SgK110                    %                6
21  CCC(=O)c1c(-c2ccccc2)c2cc(Cl)ccc2c(=O)n1Cc1cc(S(C)(=O)=O)n(CC(F)F)n1              SgK110                    %               31
22  CC(C)(C)c1ccc(C(=O)Nc2cn3cc(-c4ccccc4)ccc3n2)cc1              SgK110                    %                0
23  CN1C(=O)C(Nc2cc(Cl)c(O)c(Cl)c2)=C(c2ccc(Cl)cc2)C1=O              SgK110                    %                0
24               Nc1ncnc2c1ncn2-c1ccc(Cl)cc1              SgK110                    %                0
25  C[C@@H]1CC[C@H](C(=O)NC2CCCCC2)CN1c1cc(-c2ccc3c(N)n[nH]c3c2)nc(N)n1              SgK110                    %                0
26  CCC(=O)c1c(-c2ccccc2)c2cc(Cl)ccc2c(=O)n1Cc1cc(S(C)(=O)=O)n(CC(N)=O)n1              SgK110                    %                0
27              Nc1n[nH]c2ncc(-c3ccccc3)cc12              SgK110                    %                0
28  COc1cc2nccc(Nc3cccc(Oc4ccccc4)c3)c2cc1OC.Cl              SgK110                    %                0
29  CCC(=O)c1c(-c2ccccc2)c2cc(Cl)ccc2c(=O)n1Cc1cc(S(C)(=O)=O)n(CCC(C)(C)O)n1              SgK110                    %                9
30     Nc1nc(-c2ccccc2F)c(-c2ccnc3ccccc23)s1              SgK110                    %                0
31  Cc1nn2c(=O)cc(N3CCOCC3)nc2n1Cc1cccc(Cl)c1Cl              SgK110                    %                0
32    Fc1cccc(CSc2nnc(-c3ccc4c(c3)CCO4)o2)c1              SgK110                    %               13
33  Cc1nc(N(C)[C@H]2CN(C(=O)CC#N)CC[C@H]2C)c2cc[nH]c2n1              SgK110                    %                0
34  Cn1c(=O)c(F)c(Nc2ccc(I)cc2F)c2c(=O)n(OC[C@H](O)CO)cnc21              SgK110                    %                0
35   O=C(Nc1n[nH]c2cc(-c3ccccc3F)ccc12)C1CC1              SgK110                    %                0
36  Cc1nnc(-c2ccc3ncn(-c4ccc(S(C)=O)cc4)c3c2)o1 (stereo not shown)              SgK110                    %                2
